assay: Wnt pathway potentiators raising nuclear beta-catenin – imaging, WNT3A-conditioned medium, mouse C2C12, NPC library, primary screen (AID 1117326); conditions: at 10 µM; also: reference of the scale not given here
Active and inactive are the calls of the source. Rule as the data show it: active = nuclear beta-catenin stimulation mostly above about 4.2% (no sharp cut-off); inactive = mostly below about 10%.
Give your call using only these classes: 1 (active), -1 (inactive)

>>> label("O=C(O)/C=C(\\CC(=O)O)C(=O)O")
-1
>>> label("Cc1nccn1CC1CCc2c(c3ccccc3n2C)C1=O (centres undefined)")
-1
>>> label("CN(CCCN1c2ccccc2CCc2ccccc21)CC(=O)c1ccc(Cl)cc1")
-1
>>> label("CN1CCN(c2cc3c(cc2F)c(=O)c(C(=O)O)cn3-c2ccc(F)cc2)CC1")
-1

Problem: Test call for this compound, please: `CCCCCCc1ccc(O)cc1O`
Result: -1

Problem: Test call for this compound, please: `O=C(O)CCNC(=O)c1ccc(N=Nc2ccc(O)c(C(=O)O)c2)cc1`
Result: -1

Problem: Test call for this compound, please: COc1ccccc1N1CCN(CC(O)COc2cccc3ccccc23)CC1 (centres undefined)
Result: -1

Problem: Test call for this compound, please: `CCN1CCC[C@H]1CNC(=O)c1cc(S(N)(=O)=O)ccc1OC`
Result: -1

Problem: Test call for this compound, please: CN1CCCCC1CCN1c2ccccc2Sc2ccc(S(C)=O)cc21 (centres undefined)
Result: -1
